- Tested on: S. cerevisiae CIT2-GFP strain, flow cytometry GFP, 3 h
- Method notes: CIT2-GFP expression modulators in yeast, SAR follow-up, flow cytometry, KU analogs, dose response (AID 488827)
The source made the active and inactive calls.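 How the source made its calls: active means EC50 at or below 33 µM; inactive means the rest.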
Pick from Yes = active, No = inactive when you respond.

Completed entries (count: 5):
CNc1nc(N)c([N+](=O)[O-])c(NC2CCCCC2)n1; Yes
Cc1ccc(S(=O)(=O)c2ncccc2[N+](=O)[O-])cc1; No
Nc1nc(Nc2ccccc2)nc(Nc2cccc(F)c2)c1[N+](=O)[O-]; No
O=C(Oc1c(Cl)cc(Cl)c2cccnc12)c1cccc([N+](=O)[O-])c1; No
CNc1nc(N)c([N+](=O)[O-])c(Nc2cccc(Cl)c2)n1; Yes

Enquiry: // return assay outcome for CNc1nc(N)c([N+](=O)[O-])c(Nc2ccccc2)n1
Return: Yes

Enquiry: // return assay outcome for CSC1=NS(=O)(=O)c2c(C)nn(C)c2S1
Return: No

Enquiry: // return assay outcome for Cc1c(C(=O)Nc2nc(-c3ccccn3)cs2)oc2ccccc12
Return: No

Enquiry: // return assay outcome for Cc1ccc(/C=C2/C(=O)ON=C2c2ccccc2)o1
Return: No

Source: PubChem BioAssay AID488827
